This listing pairs compounds with measured GI50.
- Test system: UO-31 renal
- METHOD DESCRIPTION: NCI tumour cell line growth inhibition, 48 h

>  <COMPOUND>
COc1cc(/C=C/c2cc(/C=C/c3ccc(O)c(OC)c3)n(C(=O)Nc3ccc(C)cc3C)n2)ccc1O

>  <GI50>
0.362 µM

$$$$
>  <COMPOUND>
C1C[OH+]CC[OH+]CC[OH+]CC[OH+]CC[OH+]1.[Cl-].[V]

>  <GI50>
86.3 µM

$$$$
>  <COMPOUND>
COc1cccc(C#Cc2ccccc2C#CCCCCO)c1

>  <GI50>
8.79 µM

$$$$
>  <COMPOUND>
Cc1ccc2[nH]c(O)c(N=Nc3ccc(S(N)(=O)=O)cc3)c2c1

>  <GI50>
12.7 µM

$$$$
>  <COMPOUND>
O=C1CSC(c2ccc(Cl)cc2Cl)N1c1ccc(F)cc1 (stereo not given)

>  <GI50>
16.6 µM

$$$$
>  <COMPOUND>
O=C(/C=C\c1ccc(NCc2ccc(C(=O)O)cc2)cc1)CCl

>  <GI50>
14.6 µM

$$$$
>  <COMPOUND>
Cn1c(=O)c(Cc2ccccc2F)cc2cnc(NC3CCOCC3)nc21

>  <GI50>
> 20.4 µM

$$$$
>  <COMPOUND>
CC1=C[C@H]2c3c(c(O)c(O)c4oc(-c5ccccc5)cc(=O)c34)[C@H](c3cc(O)c(O)c4oc(-c5ccccc5)cc(=O)c34)[C@H]2C(C)(C)C1

>  <GI50>
0.527 µM

$$$$
>  <COMPOUND>
COc1cc(C(=O)c2cc(C)c3[nH]c4ccc(C)cc4c3c2C)cc(OC)c1OC

>  <GI50>
< 0.01 µM

$$$$
>  <COMPOUND>
CC1=C(C(=O)Nc2ccc(F)c(Cl)c2)C(c2cccc(O)c2)NC(=O)N1 (stereo not given)

>  <GI50>
71.4 µM

$$$$

* * *

- System: M14 melanoma
- METHOD DESCRIPTION: NCI tumour cell line growth inhibition, 48 h
MEASUREMENT NAME: TGI

>  <MOLECULE>
Cc1ncc(CCCN(C)C)cc1Nc1ncc2c(n1)-c1ccc(C(F)(F)F)cc1NC(=S)C2

>  <RESULT>
15.7 µM

$$$$
>  <MOLECULE>
Nc1[nH]nc2nc3ccc(C(F)(F)F)cc3nc12

>  <RESULT>
> 100 µM

$$$$
>  <MOLECULE>
COc1ccc(OC)c2c(C(=O)O)c(Cc3ccccc3)ccc12

>  <RESULT>
> 100 µM

$$$$
>  <MOLECULE>
COc1ccc2c(cnc3c4cc(OC)c(OC)cc4ccc23)c1

>  <RESULT>
> 100 µM

$$$$
>  <MOLECULE>
On1c(-c2ccccc2)nc2ccccc2c1=S

>  <RESULT>
> 100 µM

$$$$
>  <MOLECULE>
CC(CO)(CO)NCCCCn1ccc2c1C(=O)c1c(c(O)c3ccccc3c1O)C2=O

>  <RESULT>
3.41 µM

$$$$

* * *

- Test system: HOP-92 NSCLC
- METHOD DESCRIPTION: NCI tumour cell line growth inhibition, 48 h
MEASUREMENT NAME: TGI

>  <COMPOUND>
C[N+]12CCCCC1C(CN1C(=O)Cc3c4ccccc4c(c4ccccc34)CC1=O)CCC2 (stereo unspecified)

>  <MEASUREMENT NAME>
TGI

>  <RESULT>
> 100 µM

$$$$
>  <COMPOUND>
Cc1ccc2[nH]c(O)c(N=Nc3ccc(S(N)(=O)=O)cc3)c2c1

>  <MEASUREMENT NAME>
TGI

>  <RESULT>
> 25 µM

$$$$
>  <COMPOUND>
CCn1c(SCc2ccc(C)cc2)nnc1-c1nn(-c2ccc(Cl)cc2Cl)c(-c2ccc(Cl)cc2)c1C

>  <MEASUREMENT NAME>
TGI

>  <RESULT>
4.22 µM

$$$$
>  <COMPOUND>
CC(=O)N[C@H]1CSSC[C@@H](C(N)=O)NC(=O)[C@H](C(C)C)NC(=O)[C@H](C)NC(=O)[C@H](Cc2cnc[nH]2)NC1=O

>  <MEASUREMENT NAME>
TGI

>  <RESULT>
> 100 µM

$$$$
>  <COMPOUND>
Cn1c(=O)c(Cc2ccccc2F)cc2cnc(NC3CCOCC3)nc21

>  <MEASUREMENT NAME>
TGI

>  <RESULT>
> 25 µM

$$$$
>  <COMPOUND>
CC(C)NC(=O)OCCN=c1c2ccccc2ccc2ccccc12

>  <MEASUREMENT NAME>
TGI

>  <RESULT>
88 µM

$$$$
>  <COMPOUND>
C=C([C@@]1(O)C[C@H]2[C@H](CCC2(OC)OC)[C@@H]2c3ccccc3O[C@@H]21)[Si](C)(C)C

>  <MEASUREMENT NAME>
TGI

>  <RESULT>
> 100 µM

$$$$
>  <COMPOUND>
C=C1C(=O)OC2/C=C(\COC(C)=O)CCC(OC(C)=O)C3=CC(OC3=O)C12 (stereo unspecified)

>  <MEASUREMENT NAME>
TGI

>  <RESULT>
12.5 µM

$$$$
>  <COMPOUND>
CSc1cnc2ccccc2c1SC1CN(Cc2ccccc2)c2ccccc2C1=O (stereo unspecified)

>  <MEASUREMENT NAME>
TGI

>  <RESULT>
> 100 µM

$$$$
>  <COMPOUND>
COc1cc(/C=C/c2ccc(OC)c(OC)c2)cc(OC)c1

>  <MEASUREMENT NAME>
TGI

>  <RESULT>
> 100 µM

$$$$
>  <COMPOUND>
CCn1c(-c2ccc(OC(C)=O)cc2)c(C)c2cc(OC(C)=O)ccc21

>  <MEASUREMENT NAME>
TGI

>  <RESULT>
> 100 µM

$$$$
>  <COMPOUND>
COC(=O)C1=C(C)NC(C)=C(C(=O)OC)C1c1nc2sccn2c1[N+](=O)[O-]

>  <MEASUREMENT NAME>
TGI

>  <RESULT>
> 100 µM

$$$$
>  <COMPOUND>
C/C(CC(=O)NCCc1ccccc1)=N\NC(=O)C[n+]1ccccc1

>  <MEASUREMENT NAME>
TGI

>  <RESULT>
> 100 µM

$$$$
>  <COMPOUND>
Cn1c2ccccc2c(=O)c2ccc(Cl)cc21

>  <MEASUREMENT NAME>
TGI

>  <RESULT>
> 10 µM

$$$$
>  <COMPOUND>
CCSc1nc(SCC)c2cn[nH]c2n1

>  <MEASUREMENT NAME>
TGI

>  <RESULT>
> 100 µM

$$$$
>  <COMPOUND>
NC(CCC(=O)NC(CSCC1C(=O)Nc2ccccc21)C(=O)NCC(=O)O)C(=O)O (stereo unspecified)

>  <MEASUREMENT NAME>
TGI

>  <RESULT>
9.55 µM

$$$$
>  <COMPOUND>
COc1ccc(CC2NCCc3cc(OC)c(OC)cc32)cc1Br (stereo unspecified)

>  <MEASUREMENT NAME>
TGI

>  <RESULT>
61.7 µM

$$$$
>  <COMPOUND>
COc1ccc2c(cnc3c4cc(OC)c(OC)cc4ccc23)c1

>  <MEASUREMENT NAME>
TGI

>  <RESULT>
> 100 µM

$$$$
>  <COMPOUND>
C=CCc1ccc(Oc2cc(CC=C)c3c(c2O)O[C@@H](CO)[C@H]3c2ccc(O)c(-c3cc(CC=C)ccc3O)c2)cc1

>  <MEASUREMENT NAME>
TGI

>  <RESULT>
> 100 µM

$$$$
>  <COMPOUND>
O=C(CCC1OCCO1)Nc1cc(NCc2ccccc2)ccc1OCc1ccccc1

>  <MEASUREMENT NAME>
TGI

>  <RESULT>
73.3 µM

$$$$
>  <COMPOUND>
ClCc1cccc(Cn2cnc3nc(Cl)nc(Cl)c32)c1

>  <MEASUREMENT NAME>
TGI

>  <RESULT>
2.78 µM

$$$$
>  <COMPOUND>
Cc1ccc(-c2nc3ccc(Cl)cc3c(=O)n2N2C(=O)CSC2c2ccccc2Cl)cc1 (stereo unspecified)

>  <MEASUREMENT NAME>
TGI

>  <RESULT>
> 100 µM

$$$$
>  <COMPOUND>
COc1nc2nccnc2c(=O)n1C

>  <MEASUREMENT NAME>
TGI

>  <RESULT>
> 10 µM

$$$$
>  <COMPOUND>
CC1=C[C@H]2c3c(c(O)c(O)c4oc(-c5ccccc5)cc(=O)c34)[C@H](c3cc(O)c(O)c4oc(-c5ccccc5)cc(=O)c34)[C@H]2C(C)(C)C1

>  <MEASUREMENT NAME>
TGI

>  <RESULT>
5.84 µM

$$$$
>  <COMPOUND>
CCC1(C)C=Cc2c(cc(O)c3c(=O)c4ccccc4n(C)c23)O1 (stereo unspecified)

>  <MEASUREMENT NAME>
TGI

>  <RESULT>
> 10 µM

$$$$
>  <COMPOUND>
Cn1c2ccccc2c(=NNc2cccc(C(=O)O)c2)c2ccccc21

>  <MEASUREMENT NAME>
TGI

>  <RESULT>
51.2 µM

$$$$
>  <COMPOUND>
COc1ccc2nc(NC(=O)C(=O)C(C#N)c3ccc([N+](=O)[O-])cc3)sc2c1 (stereo unspecified)

>  <MEASUREMENT NAME>
TGI

>  <RESULT>
> 100 µM

$$$$
>  <COMPOUND>
CC1(C)[C@@H](OC(N)=O)[C@H]2O[C@H]2[C@]2(C=O)[C@H]3CC[C@]4(C)[C@@H](c5ccc(=O)oc5)[C@@H](Cl)C[C@]4(O)C3=CC[C@@H]12

>  <MEASUREMENT NAME>
TGI

>  <RESULT>
0.0198 µM

$$$$
>  <COMPOUND>
Cc1ncc(CCCN(C)C)cc1Nc1ncc2c(n1)-c1ccc(C(F)(F)F)cc1NC(=S)C2

>  <MEASUREMENT NAME>
TGI

>  <RESULT>
0.519 µM

$$$$
>  <COMPOUND>
O=C1Nc2ccc(F)cc2/C1=C/c1ccc[nH]1

>  <MEASUREMENT NAME>
TGI

>  <RESULT>
> 25 µM

$$$$
>  <COMPOUND>
N#Cc1cccnc1Cl

>  <MEASUREMENT NAME>
TGI

>  <RESULT>
> 100 µM

$$$$
